Consider the following molecules and their measured pIC50 readings.
Molecular target: Macrophage scavenger receptor types I and II (Homo sapiens)
Sequence (P21757 whole entry): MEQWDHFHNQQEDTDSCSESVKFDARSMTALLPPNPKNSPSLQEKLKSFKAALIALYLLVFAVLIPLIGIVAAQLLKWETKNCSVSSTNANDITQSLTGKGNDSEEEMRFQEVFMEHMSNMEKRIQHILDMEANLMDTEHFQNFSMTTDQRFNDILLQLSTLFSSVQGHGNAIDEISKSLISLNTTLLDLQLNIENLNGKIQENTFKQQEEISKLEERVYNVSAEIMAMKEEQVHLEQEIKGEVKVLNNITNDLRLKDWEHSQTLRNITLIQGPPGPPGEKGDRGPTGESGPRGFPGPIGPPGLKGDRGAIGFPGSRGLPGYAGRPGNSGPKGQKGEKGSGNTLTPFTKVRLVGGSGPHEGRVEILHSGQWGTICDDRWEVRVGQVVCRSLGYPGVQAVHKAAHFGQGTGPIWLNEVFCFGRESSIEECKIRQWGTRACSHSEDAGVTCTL
Assay: Inhibition of full-length MSR1 transfected in HEK293 cells by fluorimetry
pIC50: −log10 of the molar value.
value.kind: pIC50

>>> meas_value("CC(C)=CCC[C@H](C)C1=C(O)C=C(C)C(=O)C1=O [RIGIDONE]")
5.25
>>> meas_value("CC(C)=CCC[C@H](C)c1c(O)c(O)c(C)c2nc3ccccc3nc12")
4.15

These measurements were taken from ChEMBL document CHEMBL1145719.
